- STUDY_TARGET: Grb2 SH2 (UniProt P62993)
- Sequence (P62993 whole entry, looked up): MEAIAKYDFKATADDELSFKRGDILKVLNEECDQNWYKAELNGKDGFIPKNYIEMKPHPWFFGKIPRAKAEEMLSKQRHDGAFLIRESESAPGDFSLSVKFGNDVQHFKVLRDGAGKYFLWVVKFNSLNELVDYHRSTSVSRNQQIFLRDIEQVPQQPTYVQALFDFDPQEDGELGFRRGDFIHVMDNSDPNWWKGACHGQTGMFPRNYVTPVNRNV
- PROCEDURE_TEXT: SH2 binding enrichment of the phosphorylated peptide, bacterial display (enrichment ratio); higher = better substrate or ligand; peptides without Tyr show the background
EXPERIMENTAL_ENDPOINT: SH2 binding enrichment
Format: numeric value only, no unit, no commentary.

// map NYNPNYCFAGK [ALK_Y1096_D1091N] to recorded SH2 binding enrichment (system: Grb2 SH2 (UniProt P62993))
0.868

Do the same for VYSIDYYRVGG [NTRK2_Y706_T704I] please
0.884

Do the same for WSISFYPQVIM [CTNS_Y143] please
0.883

Do the same for WFQTKYEELQI [KRT6B_Y360_YF] please
0.953

Do the same for VLTSKYPGGGG [HBA1_Y141_R142P] please
0.737

Do the same for GRVLGYGAFGK [FLT4_Y853] please
1.28

Do the same for DGFTDYAEFAK [MCFD2_Y138_I136T_YF] please
0.823

---

- STUDY_TARGET: MERTK (UniProt Q12866)
- Sequence (Q12866 whole entry, looked up): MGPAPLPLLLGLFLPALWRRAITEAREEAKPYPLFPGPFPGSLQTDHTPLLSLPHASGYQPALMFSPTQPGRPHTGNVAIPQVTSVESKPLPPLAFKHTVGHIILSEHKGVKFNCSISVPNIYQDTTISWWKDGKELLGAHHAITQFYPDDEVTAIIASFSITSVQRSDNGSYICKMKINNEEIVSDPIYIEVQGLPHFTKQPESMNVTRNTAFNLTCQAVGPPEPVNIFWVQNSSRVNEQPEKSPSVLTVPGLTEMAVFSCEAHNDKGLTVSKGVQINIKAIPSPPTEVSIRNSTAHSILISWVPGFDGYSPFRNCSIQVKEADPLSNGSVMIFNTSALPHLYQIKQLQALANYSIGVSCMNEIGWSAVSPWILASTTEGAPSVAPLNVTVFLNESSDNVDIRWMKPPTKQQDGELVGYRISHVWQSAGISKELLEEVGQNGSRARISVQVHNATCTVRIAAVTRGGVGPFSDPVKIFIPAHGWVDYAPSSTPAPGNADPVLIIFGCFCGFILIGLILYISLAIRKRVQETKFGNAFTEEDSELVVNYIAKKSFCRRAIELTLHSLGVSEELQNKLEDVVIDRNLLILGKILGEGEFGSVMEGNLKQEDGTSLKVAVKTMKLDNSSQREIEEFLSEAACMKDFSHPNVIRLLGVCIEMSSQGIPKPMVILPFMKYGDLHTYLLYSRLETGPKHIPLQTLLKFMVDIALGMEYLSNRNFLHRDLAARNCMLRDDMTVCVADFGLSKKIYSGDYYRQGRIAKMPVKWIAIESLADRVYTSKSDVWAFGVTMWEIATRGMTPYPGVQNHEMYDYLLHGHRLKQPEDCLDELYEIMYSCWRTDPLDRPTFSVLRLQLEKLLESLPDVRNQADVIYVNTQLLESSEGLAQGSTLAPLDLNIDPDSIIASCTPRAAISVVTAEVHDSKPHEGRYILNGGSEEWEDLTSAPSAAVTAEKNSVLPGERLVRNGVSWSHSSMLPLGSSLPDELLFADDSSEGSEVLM
- PROCEDURE_TEXT: phosphorylation enrichment, bacterial display (enrichment ratio); higher = better substrate or ligand; peptides without Tyr show the background
// phosphorylation enrichment lookup, one value per entry
Format: numeric value only, no unit, no commentary.

Previously resolved entries follow.
- QRVLLYVQRET [GRHL3_Y518_R520Q]: 0.452
- MGSYNYLGFAW [SPTLC2_Y178_R183W]: 3.65
- KAIMTYVSSFF [ACTN4_Y260_YF]: 0.494
- ENPLDYGSAWA [AR_Y395]: 0.395
- TNLVPYPRIHF [TUBA1A_Y262]: 0.413

Shifting focus to the sequence that follows.
Field request: phosphorylation enrichment | item: DNPAKYFILEN [DPP10_Y512_S517N]
0.509

---

- STUDY_TARGET: EPHB2 (UniProt P29323)
- Sequence (P29323 whole entry, looked up): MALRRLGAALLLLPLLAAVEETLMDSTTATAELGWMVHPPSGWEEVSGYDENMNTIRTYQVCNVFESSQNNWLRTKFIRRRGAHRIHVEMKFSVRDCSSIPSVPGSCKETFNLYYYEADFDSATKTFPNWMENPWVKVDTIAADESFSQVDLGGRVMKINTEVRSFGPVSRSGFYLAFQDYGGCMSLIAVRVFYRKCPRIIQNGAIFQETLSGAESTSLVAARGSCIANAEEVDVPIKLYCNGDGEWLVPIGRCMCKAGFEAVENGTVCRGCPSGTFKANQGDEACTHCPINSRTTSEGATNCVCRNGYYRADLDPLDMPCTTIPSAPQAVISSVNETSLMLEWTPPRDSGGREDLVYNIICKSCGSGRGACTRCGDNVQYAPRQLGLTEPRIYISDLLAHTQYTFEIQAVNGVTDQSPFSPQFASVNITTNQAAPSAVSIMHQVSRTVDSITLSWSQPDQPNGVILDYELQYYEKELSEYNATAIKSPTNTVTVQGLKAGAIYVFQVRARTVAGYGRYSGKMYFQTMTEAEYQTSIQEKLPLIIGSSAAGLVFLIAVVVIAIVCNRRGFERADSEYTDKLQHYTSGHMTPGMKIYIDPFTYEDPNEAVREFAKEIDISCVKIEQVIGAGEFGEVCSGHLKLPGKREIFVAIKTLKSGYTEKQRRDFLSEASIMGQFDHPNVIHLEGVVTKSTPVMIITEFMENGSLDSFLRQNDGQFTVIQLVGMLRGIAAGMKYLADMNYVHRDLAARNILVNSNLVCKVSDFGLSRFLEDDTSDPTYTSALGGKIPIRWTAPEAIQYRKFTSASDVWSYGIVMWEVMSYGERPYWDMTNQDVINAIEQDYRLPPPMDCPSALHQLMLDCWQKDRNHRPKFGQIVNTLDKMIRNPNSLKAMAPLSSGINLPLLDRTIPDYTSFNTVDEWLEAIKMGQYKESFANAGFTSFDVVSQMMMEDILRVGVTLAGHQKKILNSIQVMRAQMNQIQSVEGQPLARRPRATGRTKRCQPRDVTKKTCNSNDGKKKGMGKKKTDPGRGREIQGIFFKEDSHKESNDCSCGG
- PROCEDURE_TEXT: phosphorylation enrichment, bacterial display (enrichment ratio); higher = better substrate or ligand; peptides without Tyr show the background
// phosphorylation enrichment lookup, one value per entry
Format: numeric value only, no unit, no commentary.

Previously resolved entries follow.
* GRSTYYWPRPR [GAGE12J_Y10] | 0.507
* DLTQDYEEWKR [ORC6_Y232] | 0.882
* FQEKGYNKEPR [CHRND_Y38_L42P] | 0.627
* SEDSEYFKAFE [CASQ2_Y178_YF] | 0.653

Field request: phosphorylation enrichment | item: TRVMEYISRLD [CLTCL1_Y1043]
0.449

Do the same for TTKGAYSLSVR [YES1_Y194_I198V] please
0.5

Do the same for TDLAFYLVRKG [ASL_Y376_YF] please
0.725

---

- System: c-Abl (mouse)
- PROCEDURE_TEXT: phosphorylation enrichment, bacterial display (enrichment ratio); higher = better substrate or ligand; peptides without Tyr show the background
EXPERIMENTAL_ENDPOINT: phosphorylation enrichment
Format: numeric value only, no unit, no commentary.

* GGDAVYTNGTI [RFX2_Y82_A86T] | 0.74
* NPQKSCFIRLY [WAS_Y83_Y83C] | 0.783
* CDLTDYLMKIL [ACTA1_Y190_R185C] | 0.83
* QEIATYRRLLE [KRT14_Y415] | 0.563

Field request: phosphorylation enrichment | item: IMAFFYMCDRA [CASD1_Y382_YF]
1.09

Do the same for RLSVDYSKKSK [TUBA3E_Y161] please
0.433

Do the same for LIDTVYSSSSA [OR4C12_Y71] please
1.03

Do the same for DVLEFYNSKKT [PAK1_Y131] please
0.925

Do the same for HTVVSYAEVRA [CLOCK_Y378] please
0.781

Do the same for PIYLYYLMDLS [ITGB2_Y131_D128Y] please
3.32

Do the same for ENAGFYFQVSA please
0.797

meta.source: the supplement of paper PMC10065799
